- Target or system: PLK1 (Homo sapiens)
- Construct: endogenous in cells; host or cells: HeLa LgBit (Plk1-HiBit KI): HeLa cells stably expressing LgBit, with HiBit knocked into the endogenous Plk1 locus by CRISPR/Cas9
- Sequence (P53350 whole entry): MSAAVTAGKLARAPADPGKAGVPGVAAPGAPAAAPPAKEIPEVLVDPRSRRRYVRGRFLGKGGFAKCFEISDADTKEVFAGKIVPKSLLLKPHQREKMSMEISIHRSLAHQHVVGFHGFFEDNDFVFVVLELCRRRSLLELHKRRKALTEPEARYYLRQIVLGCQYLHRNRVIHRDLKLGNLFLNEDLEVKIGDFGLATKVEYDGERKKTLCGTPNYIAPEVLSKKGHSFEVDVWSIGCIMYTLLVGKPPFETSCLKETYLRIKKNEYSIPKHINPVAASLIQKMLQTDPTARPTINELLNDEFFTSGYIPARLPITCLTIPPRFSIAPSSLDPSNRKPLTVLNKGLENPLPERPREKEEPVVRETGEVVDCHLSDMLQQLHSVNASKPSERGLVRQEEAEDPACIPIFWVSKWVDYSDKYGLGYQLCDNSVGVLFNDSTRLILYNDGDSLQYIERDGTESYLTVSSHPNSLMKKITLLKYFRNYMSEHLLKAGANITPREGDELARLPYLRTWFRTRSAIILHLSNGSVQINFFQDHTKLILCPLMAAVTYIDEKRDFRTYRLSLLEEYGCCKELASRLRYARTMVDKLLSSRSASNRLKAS
- Assay overview: Luciferase assay for PLK1 in HeLa LgBit (Plk1-HiBit KI) cell line
- Type: cell-based
- Protocol conditions: 300 nM compound, luminescence after 9 hours, read-out: Activity: ratio of the luminescense value of compound treatment group to DMSO treatment group
Assay endpoint: remaining activity at 0.3 µM

{"Molecule": "COc1cc(C(=O)NN2CCC(N3CC4(CCN(c5ccc(C6CCC(=O)NC6=O)cc5F)CC4)C3)CC2)ccc1Nc1ncc2c(n1)N(C1CCCC1)CC(F)(F)C(=O)N2C (stereo not drawn)", "Target or system": "PLK1 (Homo sapiens)", "Assay endpoint": "remaining activity at 0.3 µM", "Assay result": "< 60%"}

Quick request: remaining activity at 0.3 µM for each listed item, please.
1. COc1cc(C(=O)NC2CCN(CC3CC4(CCN(c5ccc(C6CCC(=O)NC6=O)cc5F)CC4)C3)CC2)ccc1Nc1ncc2c(n1)N(C1CCCC1)CC(F)(F)C(=O)N2C (stereo not drawn)
2. COc1cc(C(=O)NC2CCCN(C(=O)CN3CCN(c4ccc(C5CCC(=O)NC5=O)cc4F)CC3)C2)ccc1Nc1ncc2c(n1)N(C1CCCC1)CC(F)(F)C(=O)N2C (stereo not drawn)

-- reply
< 30%
< 60%

These measurements were taken from patent US11912710B2.
